Collected ka2 values appear next to each entry.
# STUDY_SYSTEM: CD3 (antigen of the binding affinity table of Example 1) (UniProt P07766)
# ASSAY: kinetic fit with two-state parameters; method not given

| BINDER | UNIT_INFO | ka2 |
| --- | --- | --- |
| H2L6 (antibody, V domains shown) VH: QVQLQQSGAEVAKPGASVKVSCKASGYTFTRYTMHWVRQAPGQGLEWMGYINPSRGYTNYNQKFKDRATLTRDKSISTAYMELSRLRSDDTAVYYCARYYDDHYSLDYWGQGTTLTVSS VL: DIQMTQSPSSLSASVGDRVTITCSASSSVSYMNWYQQKPGKAPKLWIYDTSKLASGVPSRFSGSGSGTDYTLTISSLQPEDFATYYCQQWSSNPFTFGSGTKLEINR | s⁻¹ | 0.0101 |
| H2L2 (antibody, V domains shown) VH: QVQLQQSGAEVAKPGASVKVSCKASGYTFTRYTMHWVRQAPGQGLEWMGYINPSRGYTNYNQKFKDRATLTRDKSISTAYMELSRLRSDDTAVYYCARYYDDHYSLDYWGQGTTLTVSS VL: DIQMTQSPSSLSASVGDRVTMTCSASSSVSYMNWYQQKPGKAPKLLIYDTSKLASGVPSRFSGSGSGTDFTLTISSMQPEDFATYYCQQWSSNPFTFGSGTKLEINR | s⁻¹ | 0.0268 |
| H4L3 (antibody, V domains shown) VH: QVQLQQSGAEVKKPGASVKMSCKASGYTFTRYTMHWVRQAPGQGLEWIGYINPSRGYTNYNQKFKDRVTLTTDTSISTAYMELSRLRSDDTAVYYCARYYDDHYSLDYWGQGTTLTVSS VL: DIQLTQSPSSLSASVGDRVTITCSASSSVSYMNWYQQKPGKAPKLLIYDTSKLASGVPSRFSGSGSGTDYTLTISSLQPEDFATYYCQQWSSNPFTFGSGTKLEINR | s⁻¹ | 0.0205 |
| H3L6 (antibody, V domains shown) VH: QVQLVQSGAEVKKPGASVKMSCKASGYTFTRYTMHWVRQAPGQGLEWIGYINPSRGYTNYNQKFKDRATMTTDKSISTAYMELSRLRSDDTAVYYCARYYDDHYSLDYWGQGTTLTVSS VL: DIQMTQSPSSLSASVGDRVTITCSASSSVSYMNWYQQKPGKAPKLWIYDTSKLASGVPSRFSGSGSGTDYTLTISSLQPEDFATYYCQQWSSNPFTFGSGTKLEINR | s⁻¹ | 0.00491 |
| H2L4 (antibody, V domains shown) VH: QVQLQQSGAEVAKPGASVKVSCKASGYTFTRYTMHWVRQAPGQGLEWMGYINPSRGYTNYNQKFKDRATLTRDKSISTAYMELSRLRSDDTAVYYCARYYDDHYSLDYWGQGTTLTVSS VL: DIQLTQSPSSLSASVGDRVTITCSASSSVSYMNWYQQKPGKAPKLLIYDTSKLASGVPSRFSGSGSGTDFTLTISSMQPEDFATYYCQQWSSNPFTFGSGTKLEINR | s⁻¹ | 0.0234 |
